From: the supplement of paper PMC10567573

experiment: protein stability index of a GFP-peptide fusion (GPS, HEK-293T) (PSI 1-6); higher = more stable; conditions: treatment: DMSO; c terminus: a fixed tail appended;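 note: 24-mer peptide tiles fused after GFP, lentivirally expressed, FACS-sorted into six equal bins by GFP/DsRed ratio, decoded by Illumina sequencing, PSI is the read-weighted mean bin number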

{"item.sequence": "PITAHAEVEVVEEAKCCCFFKRKR [CSNK1G1]", "protein stability index": 2.96}
{"item.sequence": "QKSPWCEARSLEHTLPVNRETLKR [ESR2]", "protein stability index": 4.23}
{"item.sequence": "GHGAEQAAAFPTEDSRTSKESMSE [EHMT1]", "protein stability index": 5.69}
{"item.sequence": "EADPEMIKRAEDYGPVEVISHWHP [CLPTM1]", "protein stability index": 4.42}
{"item.sequence": "ILSLEGGYNLRALAEGVSASLHTL [HDAC6]", "protein stability index": 2.15}
{"item.sequence": "RVKREFEPASAREAPASVVPFVRV [USP39]", "protein stability index": 3.33}
{"item.sequence": "ENAQIIYSLAEDTIQGVPLSSYIS [PCDHGA10]", "protein stability index": 2.51}

* * *

test: protein stability index of a GFP-peptide fusion (GPS, HEK-293T) (PSI 1-6); higher = more stable; conditions: treatment: DMSO; c terminus: a fixed tail appended

{"item.sequence": "DTWTLTEEHGLQQERPRPEPGRLG [PXN]", "protein stability index": 4.93}
{"item.sequence": "QWILDKQDLLKERQKDLKFLSEEE [CCNC]", "protein stability index": 4.43}
{"item.sequence": "LEISPDCSQYDRVYCGAGVQKEHE [PCMTD2]", "protein stability index": 4.56}
{"item.sequence": "RVAHEPVAPPEDKESESEAKVDGE [CDS2]", "protein stability index": 5.47}
{"item.sequence": "NMSSSRGPLPVKRGPPPRSGGPPP [RBMX]", "protein stability index": 4.41}
{"item.sequence": "YLHNHFIGEGMTKYDYLMTLHGVV [TENT5D]", "protein stability index": 2.83}
{"item.sequence": "SQCQMETKPLAIHPCGDKNCPAHW [ADAMTSL2]", "protein stability index": 3.91}
{"item.sequence": "KFRAKGRKPCKLMLQVVKILVVTV [MCOLN1]", "protein stability index": 2.51}
{"item.sequence": "EVLEWYTAKDFIVGKSLTILGRTF [EFHC1]", "protein stability index": 3.13}
{"item.sequence": "PYFSPSASFHHKLHHKRLAKECML [CBY2]", "protein stability index": 2.56}
{"item.sequence": "LGGYVKIDLATWNFQFLPQVNGHP [PTPN9]", "protein stability index": 2.92}
{"item.sequence": "IVEKRVLAHLAPLFDNPKLDKELR [INTS3]", "protein stability index": 2.13}
{"item.sequence": "WGGAPKEGSIWRGAQMEKEWARAL [ZSWIM9]", "protein stability index": 2.8}
{"item.sequence": "FGWETKIKAWMDRYEEANNNQYSE [KMT2E]", "protein stability index": 3.1}
{"item.sequence": "KNNICFMSHHQEELVPKQPQKRKP [SLC2A12]", "protein stability index": 4.31}
{"item.sequence": "AQGPNKPGYLVGRNNANGVDLNRN [CPN1]", "protein stability index": 4.33}
{"item.sequence": "PEKHQVPEKLIWGDQDPLSKIPFK [WDR88]", "protein stability index": 3.72}
{"item.sequence": "PLLLLCNIKPRRYLTVVFEHDAWF [SLC29A1]", "protein stability index": 3.09}
{"item.sequence": "TWALYNLVSVYPDKYCPLLIKEGG [ZER1]", "protein stability index": 2.62}
{"item.sequence": "PPGLPAETIKDLMRQFLRGLDFLH [CDK4]", "protein stability index": 2.21}
{"item.sequence": "ADLWYLFGDLSLSLVTVGKHLTAR [POMT2]", "protein stability index": 3.17}
{"item.sequence": "CEHICVNSDDSYTCECLEGFRLAE [MATN2]", "protein stability index": 4.11}
{"item.sequence": "RNHGILMETHKELKPLLSPSSETT [LYSMD4]", "protein stability index": 4.49}
{"item.sequence": "ILENRPPGSLLCTVAASDPDTGDN [PCDHGC5]", "protein stability index": 4.99}
{"item.sequence": "LLISCAVSYRGAWWYRNCHYANLN [TNXB]", "protein stability index": 2.97}
{"item.sequence": "QSLKGHLRNNFQKQLLSNKELILD [ZC2HC1C]", "protein stability index": 3.08}
{"item.sequence": "QMVSAIVRTMQNTNDVETARCTAG [CTNNB1]", "protein stability index": 2.87}
